Target: T1, pKal catalytic domain Mutant 1 (human, UniProt P03952 391-638, limits assumed)
T1 construct: domain: catalytic domain; Expressed in Pichia pastoris, purified by IMAC; not shown: His tag fusion
T1 sequence (P03952 other isoform, or with tags, fused parts or gaps mutant limits assumed): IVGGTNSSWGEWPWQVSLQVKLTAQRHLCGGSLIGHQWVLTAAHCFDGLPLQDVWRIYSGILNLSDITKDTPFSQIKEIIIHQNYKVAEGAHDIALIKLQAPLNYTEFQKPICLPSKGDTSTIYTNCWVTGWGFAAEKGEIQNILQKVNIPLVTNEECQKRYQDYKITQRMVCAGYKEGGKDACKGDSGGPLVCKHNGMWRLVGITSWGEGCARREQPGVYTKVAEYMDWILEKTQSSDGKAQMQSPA
Test: Ki,app: enzyme inhibition, fluorescent substrate, 2 h pre-incubation at 30 C, tight-binding fit
Description: Apparent Inhibition constants (K_{i,app} values) were measured by pre-incubating enzyme and inhibitor solutions prior to initiating the reactions with substrate. […] Reactions were initiated by the addition of 10 μL of a 10× concentrated stock of substrate, and were monitored at 30° C. in a fluorescence plate reader with the excitation and emission wavelengths set at 360 nm/460 nm, respectively. […]
We label by threshold. Values of Ki strictly beneath 0.4 nM are MET. Values of 0.4 nM and up are NOT MET.

Some entries whose results are on file:
Query :: Consider the binder X115-F02 (Fab, V domains shown, also called 559A-X115-F02; 559A-X0115-F02) VH: EVQLLESGGGLVQPGGSLRLSCAASGFTFSHYIMMWVRQAPGKGLEWVSGIYSSGGITVYADSVKGRFTISRDNSKNTLYLQMNSLRAEDTAVYYCAYRRIGVPRRDEFDIWGQGTMVTVSS VL: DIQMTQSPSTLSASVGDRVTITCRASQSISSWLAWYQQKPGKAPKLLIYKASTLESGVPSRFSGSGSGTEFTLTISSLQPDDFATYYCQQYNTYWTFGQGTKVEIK . Is its Ki strictly less than 0.4 nM?
Result :: MET

Query :: Consider the binder M06-D09 (antibody, V domains shown, Only variable domains printed; also called M6-D09; 559A-M06-D09) VH: EVQLLESGGGLVQPGGSLRLSCAASGFTFSFYYMVWVRQAPGKGLEWVSVIYPSGGITVYADSVKGRFTISRDNSKNTLYLQMNSLRAEDTAVYYCARDKWAVMPPYYYYAMDVWGQGTTVTVSS VL: DIQMTQSPSSLSASVGDRVTITCRASQSIRNYLNWYQQKPGKAPNLLIYAASTLQSGVPARFSGSGSGTDFTLTISSLQPEDFATYYCQQLSGYPHTFGQGTKLEIK . Is its Ki strictly less than 0.4 nM?
Result :: NOT MET

Query :: Consider the binder DX-2922 (antibody, V domains shown, Germlined IgG produced in CHO cells; only the variable domains are printed; also called X101-A01; 559A-X0101-A01) VH: EVQLLESGGGLVQPGGSLRLSCAASGFTFSHYLMTWVRQAPGKGLEWVSYISPSGGHTIYADSVKGRFTISRDNSKNTLYLQMNSLRAEDTAVYYCARVARGIAARSRTSYFDYWGQGTLVTVSS VL: EIVLTQSPGTLSLSPGERATLSCRTSQFVNSNYLAWYQQKPGQAPRLLIYGASSRATGIPDRFSGSGSGTDFTLTISRLEPEDFAVYYCQQSSRTPWTFGQGTKVEIK . Is its Ki strictly less than 0.4 nM?
Result :: NOT MET

Query :: Dear colleague, could you confirm whether Ki of X115-A03 (antibody, V domains shown, only variable domains given; also called 559A-X115-A03; 559A-X0115-A03) VH: EVQLLESGGGLVQPGGSLRLSCAASGFTFSHYIMMWVRQAPGKGLEWVSGIYSSGGITVYADSVKGRFTISRDNSKNTLYLQMNSLRAEDTAVYYCAWRRIGVPRRDSFDMWGQGTMVTVSS VL: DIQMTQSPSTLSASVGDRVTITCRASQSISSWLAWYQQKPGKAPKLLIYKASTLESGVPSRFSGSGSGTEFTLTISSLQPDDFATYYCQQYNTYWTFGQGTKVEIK falls below 0.4 nM? Thanks.
Result :: MET

Moving on to the next binder.
Query :: Here's an entry: X115-B07 (antibody, V domains shown, only variable domains given; also called 559A-X115-B07; 559A-X0115-B07) VH: EVQLLESGGGLVQPGGSLRLSCAASGFTFSHYLMTWVRQAPGKGLEWVSYISPSGGHTIYADSVKGRFTISRDNSKNTLYLQMNSLRAEDTAVYYCAMVGQGIRGRSRTSYFAQWGQGTLVTVSS VL: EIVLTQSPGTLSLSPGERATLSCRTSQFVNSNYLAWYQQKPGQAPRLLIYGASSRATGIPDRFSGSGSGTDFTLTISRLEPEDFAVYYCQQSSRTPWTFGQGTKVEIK . Is its Ki below 0.4 nM?
Result :: NOT MET
